FYI, the data here is from ChEMBL document CHEMBL2218924.

TGT: Cyclin-dependent kinase 7/ cyclin H (Homo sapiens) (UniProt P51946+P50613)
STUDY_CONDITIONS: at 10 µM
QUANTITY_KIND: residual activity (%)

TEST_SMILES | MEASURED_RESULT
Cc1ccc(S(=O)(=O)/C=C/C#N)cc1 | 90
COc1cc2ncnc(Nc3ccc(O)c(Br)c3)c2cc1OC | 78
COc1cc2ncc(-c3ccccc3)nc2cc1OC | 91
Oc1n[nH]c2nnc(-c3c(-c4ccccc4)nn4ccccc34)cc12 | 86
O=C1NC(=O)c2c1c1c3ccccc3[nH]c1c1[nH]c3cc(Br)ccc3c21 | 94
Cc1ccc(NC2=CC(=O)c3sc(C)nc3C2=O)cc1 | 85
CNc1cc2c(Nc3cccc(Br)c3)ncnc2cn1 | 74
Nc1n[nH]c2nnc(-c3c(-c4ccccc4)nn4ccccc34)cc12 | 89
Oc1ccc(-c2nc(-c3ccc(F)cc3)c(-c3ccncc3)[nH]2)cc1 | 102
CC(=O)O/N=C1\C(=C2\C(=O)Nc3cc(Br)ccc32)Nc2ccccc21 | 45
Cc1nc2cc3nc(-c4cccs4)cnc3cc2n1C | 102

====

TGT: Serine/threonine-protein kinase MRCK alpha (Homo sapiens)
STUDY_CONDITIONS: at 10 µM
Reported residual activity values for a set of compounds
QUANTITY_KIND: residual activity (%)

TEST_SMILES | MEASURE_UNIT | MEASURED_RESULT
C[C@@H](N)[C@H]1CC[C@H](C(=O)Nc2ccncc2)CC1 | % | 84
CCN(CC)CCCCN1c2ccccc2Oc2ccc(Cl)cc21 | % | 119
COc1ccc(CNc2nc(N(CCO)CCO)nc3c2ncn3C(C)C)cc1 | % | 89
Cc1ccc(NC2=CC(=O)c3sc(C)nc3C2=O)cc1 | % | 91
O=C1NC(=O)/C(=C\c2ccc3nccnc3c2)S1 | % | 93
CCC(=O)Nc1ccc2ncnc(Nc3cccc(Br)c3)c2c1 | % | 101
O=Nc1c(-c2c(O)[nH]c3ccccc23)[nH]c2ccccc12 | % | 135
Cn1nc2c3c(cccc31)C(=O)c1ccccc1-2 | % | 99
COc1cc2ncnc(Nc3ccc(O)c(Br)c3)c2cc1OC | % | 84
COc1cc2ncnc(Nc3ccc(Oc4ccccc4)cc3)c2cc1OC | % | 134
Cn1cnc2cc3c(Nc4cccc(Br)c4)ncnc3cc21 | % | 87
O=C1c2ccccc2-[n+]2ccc3c([nH]c4ccccc43)c21 | % | 86

====

The molecules listed here are annotated with their residual activity.
TGT: Serine/threonine-protein kinase WNK2 (Homo sapiens)
STUDY_CONDITIONS: at 1 µM
Description: Millipore: Percentage of residual kinase activity of WNK2 at 1uM relative to control. Control inhibitor: Phosphoric acid* at 0.3uM. Buffer: 8 mM MOPS pH 7.0, 0.2 mM EDTA
QUANTITY_KIND: residual activity

TEST_SMILES | TGT | MEASURED_RESULT
O=C1NC(=O)c2cc(Nc3ccc(F)cc3)c(Nc3ccc(F)cc3)cc21 | Serine/threonine-protein kinase WNK2 (Homo sapiens) | 82% (inactive)
CC(=O)O/N=C1\C(=C2\C(=O)Nc3cc(Br)ccc32)Nc2ccccc21 | Serine/threonine-protein kinase WNK2 (Homo sapiens) | 104% (inactive)
c1ccc(-c2n[nH]cc2-c2ccnc3ccccc23)nc1 | Serine/threonine-protein kinase WNK2 (Homo sapiens) | 105% (inactive)
O=C1NC(=O)c2c1c1c3ccccc3[nH]c1c1[nH]c3cc(Br)ccc3c21 | Serine/threonine-protein kinase WNK2 (Homo sapiens) | 96% (inactive)
O=C1NC(=O)/C(=C/c2ccc3c(c2)OC(F)(F)O3)S1 | Serine/threonine-protein kinase WNK2 (Homo sapiens) | 114% (inactive)
CC[n+]1c(/C=C/N(C)c2ccccc2)n(-c2ccccc2)c2ccc(-c3nc4ccccc4s3)cc21 | Serine/threonine-protein kinase WNK2 (Homo sapiens) | 96% (inactive)
NC(=O)c1ccc2[nH]c(-c3ccc(Oc4ccc(Cl)cc4)cc3)nc2c1 | Serine/threonine-protein kinase WNK2 (Homo sapiens) | 90% (inactive)
O=[N+]([O-])c1ccc(-c2nc(-c3ccc(F)cc3)c(-c3ccncc3)[nH]2)cc1 | Serine/threonine-protein kinase WNK2 (Homo sapiens) | 102% (inactive)
C[C@@H](N)[C@H]1CC[C@H](C(=O)Nc2ccncc2)CC1 | Serine/threonine-protein kinase WNK2 (Homo sapiens) | 95% (inactive)
N#C/C(=C(\N)Sc1ccc(N)cc1)c1ccccc1C(F)(F)F | Serine/threonine-protein kinase WNK2 (Homo sapiens) | 101% (inactive)

====

TGT: Ribosomal protein S6 kinase alpha-1 (Homo sapiens) (UniProt Q15418)
Sequence (Q15418 whole entry): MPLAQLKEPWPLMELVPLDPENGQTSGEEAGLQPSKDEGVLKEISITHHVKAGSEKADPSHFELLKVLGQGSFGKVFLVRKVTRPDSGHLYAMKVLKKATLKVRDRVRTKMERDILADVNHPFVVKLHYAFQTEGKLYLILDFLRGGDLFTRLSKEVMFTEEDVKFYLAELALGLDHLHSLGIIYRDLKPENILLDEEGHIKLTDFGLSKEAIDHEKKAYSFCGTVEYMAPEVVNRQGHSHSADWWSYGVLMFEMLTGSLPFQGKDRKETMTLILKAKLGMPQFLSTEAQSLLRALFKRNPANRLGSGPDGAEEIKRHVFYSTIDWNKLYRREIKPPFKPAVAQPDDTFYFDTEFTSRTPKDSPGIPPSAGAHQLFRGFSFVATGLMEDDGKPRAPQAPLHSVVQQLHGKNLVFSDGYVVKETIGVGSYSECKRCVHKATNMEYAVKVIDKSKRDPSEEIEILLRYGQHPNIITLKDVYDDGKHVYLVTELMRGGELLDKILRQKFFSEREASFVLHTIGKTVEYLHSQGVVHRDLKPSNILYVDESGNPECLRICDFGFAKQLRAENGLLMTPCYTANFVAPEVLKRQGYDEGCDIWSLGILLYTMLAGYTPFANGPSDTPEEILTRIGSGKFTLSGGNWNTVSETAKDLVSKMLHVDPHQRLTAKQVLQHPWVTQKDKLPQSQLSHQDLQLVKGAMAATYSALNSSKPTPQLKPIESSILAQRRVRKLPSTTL
STUDY_CONDITIONS: at 1 µM
The following compounds are listed with their measured residual activity values.

TEST_SMILES | residual activity, %
c1ccc(-c2n[nH]c3c2oc2ccccc23)cc1 | 97
Cc1ccc(S(=O)(=O)/C=C/C#N)cc1 | 94
Cc1cc2ncc(-c3ccccc3)nc2cc1C | 95
CC(C)n1cnc2/c(=N/c3cccc(Cl)c3)nc(NCCO)[nH]c21 | 50

====

TGT: TGF-beta receptor type-1 (Homo sapiens) (UniProt P36897)
STUDY_CONDITIONS: at 1 µM
Description: Millipore: Percentage of residual kinase activity of TGFBR1 at 1uM relative to control. Control inhibitor: Phosphoric acid* at 0.3uM. Buffer: 8 mM MOPS pH 7.0, 0.2 mM EDTA, 1 mM MnCl2
Is residual activity at least 90%? Then Criterion met. If not, Criterion not met.

TEST_SMILES | ANSWER_LABEL
COc1cc2ncnc(N3CCN(C(=O)Nc4ccc(Oc5ccccc5)cc4)CC3)c2cc1OC | Criterion not met
COc1cc2ncnc(Nc3ccc(NC(=O)c4ccccc4)cc3)c2cc1OC | Criterion met
c1ccc(-c2n[nH]c3c2oc2ccccc23)cc1 | Criterion not met
Cn1nc2c3c(cccc31)C(=O)c1ccccc1-2 | Criterion not met
CN(C)c1ccc(/C=C2\C(=O)Nc3ccccc32)cc1 | Criterion met
Cc1ccc(S(=O)(=O)/C=C/C#N)cc1 | Criterion met

====

In this section, each of the molecules is paired with its reported residual activity.
TGT: SRSF protein kinase 1 (Homo sapiens)
STUDY_CONDITIONS: at 10 µM

TEST_SMILES | residual activity [%]
Nc1nc(Nc2ccc(S(N)(=O)=O)cc2)nn1C(=S)Nc1c(F)cccc1F | 7
O=C(Nc1cccc(Nc2nccc(Nc3cccc(C(F)(F)F)c3)n2)c1)C1CC1 | 87
Cn1nc2c3c(cccc31)C(=O)c1ccccc1-2 | 89
CC(C)n1cnc2/c(=N/c3cccc(Cl)c3)nc(NCCO)[nH]c21 | -2
N#C/C(=C(\N)Sc1ccc(N)cc1)c1ccccc1C(F)(F)F | 99
COc1ccc(OC)c2c(=S)c3ccccc3[nH]c12 | 88
Cc1nc2cc3nc(-c4cccs4)cnc3cc2n1C | 107
COc1ccc(C(=O)Nc2sc3c(c2C(N)=O)CCCC3)cc1OC | 95
COc1cc2ncnc(Nc3ccc(Oc4ccccc4)cc3)c2cc1OC | 90
Cc1cc2ncc(-c3ccccc3)nc2cc1C | 97
CCC(=O)Nc1ccc2ncnc(Nc3cccc(Br)c3)c2c1 | 98

====

TGT: TGF-beta receptor type-1 (Homo sapiens) (UniProt P36897)
Sequence (whole entry): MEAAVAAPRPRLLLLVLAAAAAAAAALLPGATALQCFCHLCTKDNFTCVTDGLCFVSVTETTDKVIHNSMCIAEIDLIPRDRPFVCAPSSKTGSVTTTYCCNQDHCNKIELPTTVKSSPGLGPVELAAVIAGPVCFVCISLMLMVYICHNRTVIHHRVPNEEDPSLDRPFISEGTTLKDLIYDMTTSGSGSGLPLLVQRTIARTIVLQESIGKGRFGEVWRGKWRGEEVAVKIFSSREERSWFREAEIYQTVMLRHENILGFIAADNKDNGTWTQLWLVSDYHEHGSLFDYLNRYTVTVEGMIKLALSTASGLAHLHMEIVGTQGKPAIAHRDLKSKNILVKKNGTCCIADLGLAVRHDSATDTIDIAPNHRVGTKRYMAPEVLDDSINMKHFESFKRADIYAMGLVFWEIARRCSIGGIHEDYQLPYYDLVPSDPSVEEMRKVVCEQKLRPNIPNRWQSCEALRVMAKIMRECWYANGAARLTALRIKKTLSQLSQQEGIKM
STUDY_CONDITIONS: at 10 µM
Description: Millipore: Percentage of residual kinase activity of TGFBR1 at 10uM relative to control. Control inhibitor: Phosphoric acid* at 0.3uM. Buffer: 8 mM MOPS pH 7.0, 0.2 mM EDTA, 1 mM MnCl2
QUANTITY_KIND: residual activity (%)

TEST_SMILES | TGT | MEASURED_RESULT
Cc1nc2cc3nc(-c4cccs4)cnc3cc2n1C | TGF-beta receptor type-1 (Homo sapiens) (UniProt P36897) | 118
COc1cc2ncnc(N3CCN(C(=O)Nc4ccc(Oc5ccccc5)cc4)CC3)c2cc1OC | TGF-beta receptor type-1 (Homo sapiens) (UniProt P36897) | 76
Cn1nc2c3c(cccc31)C(=O)c1ccccc1-2 | TGF-beta receptor type-1 (Homo sapiens) (UniProt P36897) | 76
N#Cc1cnc2cnc(NCc3cccnc3)cc2c1Nc1ccc(F)c(Cl)c1 | TGF-beta receptor type-1 (Homo sapiens) (UniProt P36897) | 123
COc1ccc(CNc2nc(N(CCO)CCO)nc3c2ncn3C(C)C)cc1 | TGF-beta receptor type-1 (Homo sapiens) (UniProt P36897) | 74
O=C1NC(=O)/C(=C\c2ccc3nccnc3c2)S1 | TGF-beta receptor type-1 (Homo sapiens) (UniProt P36897) | 75
O=C1Nc2cc(Br)ccc2/C1=C1/Nc2ccccc2/C1=N\O | TGF-beta receptor type-1 (Homo sapiens) (UniProt P36897) | 77
COc1ccc(S(=O)(=O)N(CCO)c2ccccc2CN(C)C/C=C/c2ccc(Cl)cc2)cc1 | TGF-beta receptor type-1 (Homo sapiens) (UniProt P36897) | 92
CC(C)n1cnc2/c(=N/c3cccc(Cl)c3)nc(NCCO)[nH]c21 | TGF-beta receptor type-1 (Homo sapiens) (UniProt P36897) | 85
N#CCCc1ccc2c(c1)-c1[nH]c3ccc([N+](=O)[O-])cc3c1CC(=O)N2 | TGF-beta receptor type-1 (Homo sapiens) (UniProt P36897) | 28
CNc1cc2c(Nc3cccc(Br)c3)ncnc2cn1 | TGF-beta receptor type-1 (Homo sapiens) (UniProt P36897) | 94
